target: mouse TRPM3α2 (mTRPM3) ion channel (Mus musculus); test: Monitoring the TRPM3 ion channel driven Ca2+ uptake (Fluo-4 AM assay); conditions: mTRPM3alpha2 overexpressing flip-in HEK293 cells, stimulated with Pregnenolone sulfate (PS) 50 μM
Sequence (J9SQF3 1-1709 isoform J9SQF3-12): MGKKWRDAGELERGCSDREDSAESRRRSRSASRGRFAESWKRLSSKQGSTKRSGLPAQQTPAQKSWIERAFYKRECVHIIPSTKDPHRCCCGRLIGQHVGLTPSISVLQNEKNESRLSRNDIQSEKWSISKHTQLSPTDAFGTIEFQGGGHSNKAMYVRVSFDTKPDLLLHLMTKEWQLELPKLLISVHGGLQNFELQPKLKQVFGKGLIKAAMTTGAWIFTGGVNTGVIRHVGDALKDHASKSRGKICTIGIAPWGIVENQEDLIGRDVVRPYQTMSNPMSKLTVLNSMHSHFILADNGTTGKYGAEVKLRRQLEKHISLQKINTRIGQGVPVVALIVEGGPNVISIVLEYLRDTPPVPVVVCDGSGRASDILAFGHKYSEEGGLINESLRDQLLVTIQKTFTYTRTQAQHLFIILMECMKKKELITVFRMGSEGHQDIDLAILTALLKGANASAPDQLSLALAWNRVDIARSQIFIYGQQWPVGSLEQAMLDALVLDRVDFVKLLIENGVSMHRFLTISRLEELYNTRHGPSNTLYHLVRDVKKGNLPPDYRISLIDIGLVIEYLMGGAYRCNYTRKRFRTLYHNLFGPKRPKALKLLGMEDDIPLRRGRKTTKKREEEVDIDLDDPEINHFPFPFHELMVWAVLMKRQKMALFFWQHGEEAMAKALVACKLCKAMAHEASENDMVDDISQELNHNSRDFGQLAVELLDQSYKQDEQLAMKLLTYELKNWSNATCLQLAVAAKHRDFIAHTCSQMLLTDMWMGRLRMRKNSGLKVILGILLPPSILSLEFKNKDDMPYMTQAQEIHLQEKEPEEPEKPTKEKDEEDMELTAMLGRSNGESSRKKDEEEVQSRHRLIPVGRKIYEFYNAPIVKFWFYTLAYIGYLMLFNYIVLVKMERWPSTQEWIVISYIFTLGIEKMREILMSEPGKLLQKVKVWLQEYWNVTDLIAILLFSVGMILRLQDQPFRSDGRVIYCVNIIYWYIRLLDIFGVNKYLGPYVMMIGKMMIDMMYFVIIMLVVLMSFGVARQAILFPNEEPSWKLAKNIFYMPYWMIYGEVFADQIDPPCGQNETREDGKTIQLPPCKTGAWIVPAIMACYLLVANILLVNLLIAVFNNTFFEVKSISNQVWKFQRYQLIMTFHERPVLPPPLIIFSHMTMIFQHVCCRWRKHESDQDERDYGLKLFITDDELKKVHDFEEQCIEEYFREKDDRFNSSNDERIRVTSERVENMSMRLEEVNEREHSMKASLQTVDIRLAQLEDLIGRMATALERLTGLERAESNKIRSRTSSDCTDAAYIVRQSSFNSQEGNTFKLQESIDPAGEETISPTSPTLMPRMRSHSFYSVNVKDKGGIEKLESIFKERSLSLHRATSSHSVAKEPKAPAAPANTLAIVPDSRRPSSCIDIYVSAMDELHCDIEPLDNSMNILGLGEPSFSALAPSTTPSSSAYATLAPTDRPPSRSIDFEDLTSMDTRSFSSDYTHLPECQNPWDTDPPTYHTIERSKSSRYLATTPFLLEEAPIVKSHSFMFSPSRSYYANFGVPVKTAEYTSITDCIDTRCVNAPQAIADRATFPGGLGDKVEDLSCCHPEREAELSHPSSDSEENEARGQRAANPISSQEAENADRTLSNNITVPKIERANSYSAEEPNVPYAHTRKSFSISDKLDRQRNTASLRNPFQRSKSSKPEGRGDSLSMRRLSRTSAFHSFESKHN
test-readout: IC50

Examples from the recorded data:
compound="Cc1oc2ccc(OCC3CCC3)cc2c1C(=O)NC1CCNCC1(F)F (single isomer, unassigned) [Cpd 019 - En1]" meas_value="1 to 20 µM"
compound="Cc1oc2ccc(OCC(C)(C)C)cc2c1C(=O)NC1CCNCC1(F)F (single isomer, unassigned) [Cpd 043-En1]" meas_value="1 to 20 µM"
compound="Cc1oc2ccc(OCC(C)C)cc2c1C(=O)NC1CCNCC1(F)F (single isomer, unassigned) [Cpd 042-En1]" meas_value="1 to 20 µM"
compound="Cc1oc2ccc(OCC3CC3(C)C)cc2c1C(=O)NC1CCNCC1(F)F (single isomer, unassigned) [Cpd 033-En4]" meas_value="1 to 20 µM"
compound="Cc1oc2ccc(OCC3CC3(C)C)cc2c1C(=O)NC(C)(CO)C(N)=O (single isomer, unassigned) [Cpd 049 - En2]" meas_value="< 1 µM"

// for each compound in input: emit IC50
1. Cc1oc2ccc(OCC3(C)CC3)cc2c1C(=O)NC1CCNCC1(F)F (single isomer, unassigned) [Cpd 032 - En2]
2. Cc1oc2ccc(OCC3CCCCC3)cc2c1C(=O)NC1CCN(C)CC1 [Cpd 020]

-- reply
["1 to 20 µM", "> 20 µM"]

// for each compound in input: emit IC50
1. Cc1oc2ccc(OCC3CC3(C)C)cc2c1C(=O)NC1CCNCC1(F)F (single isomer, unassigned) [Cpd 033-En1]
2. Cc1oc2ccc(OCC3CC(F)(F)C3)cc2c1C(=O)NC(C)(CO)C(N)=O (single isomer, unassigned) [Cpd 054 - En1]
3. Cc1oc2ccc(OCC3(C(F)(F)F)CC3)cc2c1C(=O)NC1(C)CCCNC1=O (single isomer, unassigned) [Cpd 061 - En1]
4. Cc1oc2ccc(OCC3CC3(C)C)cc2c1C(=O)NC(C)(CO)C(N)=O (single isomer, unassigned) [Cpd 049 - En1]

-- reply
["1 to 20 µM", "1 to 20 µM", "> 20 µM", "< 1 µM"]

// for each compound in input: emit IC50
1. Cc1oc2ccc(OCC3CCC3)cc2c1C(=O)NC1CCNCC1(F)F (single isomer, unassigned) [Cpd 019 - En2]
2. Cc1oc2ccc(OCC3CCCC3(F)F)cc2c1C(=O)NC(CO)C(N)=O (stereo not shown) [Cpd 013]

-- reply
< 1 µM
< 1 µM
